# Test system: MDA-MB-453
# test_protocol: drug sensitivity score (DSS), single agent (DSS (weighted AUC score)); higher = more sensitive (stronger viability decrease); extreme values may be limits of the assay
# condition: BLU9931 0 nM; 72 h
experimental_readout: drug sensitivity score
Please reply with the number alone, leaving off any unit.

Measured drug sensitivity score, CC(O)c1cc(C(=O)N[C@@H](C)Cn2ccc(-c3ccc(C#N)c(Cl)c3)n2)n[nH]1 (stereo partly drawn) : 1.1

Sure, the documented drug sensitivity score for Cc1nc(Nc2ncc(C(=O)Nc3c(C)cccc3Cl)s2)cc(N2CCN(CCO)CC2)n1 is 0

Entry CCNC(=O)CCC/C=C\C[C@@H]1[C@@H](/C=C/[C@@H](O)CCc2ccccc2)[C@H](O)C[C@@H]1O ; drug sensitivity score = 0

The reported drug sensitivity score of the compound Clc1ccc(Nc2nnc(Cc3ccncc3)c3ccccc23)cc1 was 0.8

The recorded drug sensitivity score for Cc1sc2c(c1C)C(c1ccc(Cl)cc1)=N[C@@H](CC(=O)NCCCCNC(=O)COc1cccc3c1C(=O)N(C1CCC(=O)NC1=O)C3=O)c1nnc(C)n1-2 (stereo partly drawn) is 12.2

drug sensitivity score reading for CN1CCN(c2nc(C3=C(c4c[nH]c5ccccc45)C(=O)NC3=O)c3ccccc3n2)CC1 : 2.5

Recorded result, O=C(NC[C@H](O)CN1CCc2ccccc2C1)c1cc(NC2COC2)ncn1 , drug sensitivity score: 3.9

Noted for O=C(Nc1cccc(NC(=O)c2cccc(O)c2O)c1)c1cccc(O)c1O : its drug sensitivity score reads 10

###

# System: MDA-MB-453
# test_protocol: drug sensitivity score (DSS), in combination with BLU9931 (DSS (weighted AUC score)); higher = more sensitive (stronger viability decrease); extreme values may be limits of the assay
# condition: BLU9931 100 nM; 72 h
experimental_readout: drug sensitivity score
Just the number, please.

Known value: MDA-MB-453 drug sensitivity score of the molecule CNC(=O)c1ccccc1Sc1ccc2c(/C=C/c3ccccn3)n[nH]c2c1 equals 0.3

Per the reported MDA-MB-453 data, CS(=O)(=O)CCNCc1ccc(-c2ccc3ncnc(Nc4ccc(OCc5cccc(F)c5)c(Cl)c4)c3c2)o1 has drug sensitivity score of 7

The molecule CCS(=O)(=O)N1CC(CC#N)(n2cc(-c3ncnc4[nH]ccc34)cn2)C1 on MDA-MB-453: drug sensitivity score was 0

Let me check: CN1CCc2c(c3ccccc3n2Cc2ccc(C(=O)NO)cc2)C1 , system MDA-MB-453, measured drug sensitivity score is 2.1

Assay MDA-MB-453, sample Cc1cnc(-c2ccccc2C(C)C)nc1NCc1ccc(-n2ccnn2)cc1 , drug sensitivity score read: 0

Kindly note: MDA-MB-453, C[C@@H]1COC(Nc2ccc3ncnc(Nc4ccc(OCc5nccs5)c(Cl)c4)c3c2)=N1 , drug sensitivity score value reported: 9.1

drug sensitivity score value, target or system MDA-MB-453, for CC[C@@H]1C(=O)OC[C@@H]1Cc1cncn1C : 0.2

So the reported drug sensitivity score for COc1cccc2c1C(=O)c1c(O)c3c(c(O)c1C2=O)C[C@@](O)(C(=O)CO)C[C@@H]3O[C@H]1C[C@H](N)[C@@H](O)[C@H](C)O1 [Epirubicin] , on MDA-MB-453, turned out to be 5.9

Known value: MDA-MB-453 drug sensitivity score of the molecule CC(C)(C)c1nc(-c2cccc(NS(=O)(=O)c3c(F)cccc3F)c2F)c(-c2ccnc(N)n2)s1 equals 0.4

The reported MDA-MB-453 drug sensitivity score of CCS(=O)(=O)N1CCN(c2ccc(Nc3ncc(C(N)=O)c(NC4CC4)n3)cc2)CC1 is 0.3

// returns drug sensitivity score for O=C(Nc1cnn2ccc(N3CCC[C@@H]3c3cc(F)ccc3F)nc12)N1CC[C@H](O)C1 with MDA-MB-453; value = 0

Kindly note: MDA-MB-453, N#CC[C@H](C1CCCC1)n1cc(-c2ncnc3[nH]ccc23)cn1 , drug sensitivity score value reported: 0

Test item CCn1c(-c2nonc2N)nc2c(C#CC(C)(C)O)ncc(OC[C@H]3CCCNC3)c21 ; MDA-MB-453; reported drug sensitivity score was 15

Entry CC(=O)O[C@]1(C(C)=O)CC[C@H]2[C@@H]3C=C(C)C4=CC(=O)CC[C@]4(C)[C@H]3CC[C@@]21C [Megestrol acetate] , tested on MDA-MB-453, has a reported drug sensitivity score of 0

// drug sensitivity score (MDA-MB-453) for COc1cc([C@@H]2c3cc4c(cc3[C@@H](O[C@@H]3O[C@@H]5CO[C@@H](c6cccs6)O[C@H]5[C@H](O)[C@H]3O)[C@H]3COC(=O)[C@H]23)OCO4)cc(OC)c1O [Teniposide] = 0

Param item: CCN(CC)Cc1ccc2cc(COC(=O)Nc3ccc(C(=O)NO)cc3)ccc2c1 ; param system: MDA-MB-453; output drug sensitivity score: 10.3

###

# Test system: MDA-MB-453
# test_protocol: drug sensitivity score (DSS), in combination with BLU9931 (DSS (weighted AUC score)); higher = more sensitive (stronger viability decrease); extreme values may be limits of the assay
# condition: BLU9931 100 nM; 72 h
Assign t to entries whose drug sensitivity score meets or exceeds 6; assign f to the rest.

Query: Kindly determine if drug sensitivity score recorded for NC(=O)N1CCC(CC(=O)N2CCC([C@H]3c4ncc(Br)cc4CCc4cc(Cl)cc(Br)c43)CC2)CC1 is above or exactly 6.
Response: f

Query: Check this molecule for drug sensitivity score at or above 6: Cc1ccc(-n2nc(C(C)(C)C)cc2NC(=O)Nc2ccc(OCCN3CCOCC3)c3ccccc23)cc1
Response: f

Query: Does CCS(=O)(=O)c1cccc(-c2cc(C(=O)NC3CCN(C)CC3)c(C)c3[nH]c4ncc(C)cc4c23)c1 have a reported drug sensitivity score of at least 6?
Response: f

Query: Has CCN(CC)CCCC(C)Nc1c2ccc(Cl)cc2nc2ccc(OC)cc12 (stereo unspecified) a recorded drug sensitivity score greater than or equal to 6?
Response: t

Query: // inclusive: drug sensitivity score at least 6? input: CNC(=O)c1ccccc1Nc1nc(Nc2ccc3c(c2OC)CCC[C@H](N2CCN(CCO)CC2)C3)ncc1Cl
Response: f

Query: # bool: drug sensitivity score of CC[C@@H]1CN(C(=O)NCC(F)(F)F)C[C@@H]1c1cnc2cnc3[nH]ccc3n12 >= 6
Response: f

Query: Answer whether drug sensitivity score of Nc1nccc(-c2c(-c3ccc(F)cc3)ncn2C2CCCCC2)n1 is greater than or equal to 6.
Response: f

Query: Would you say CC(O)c1cc(C(=O)N[C@@H](C)Cn2ccc(-c3ccc(C#N)c(Cl)c3)n2)n[nH]1 (stereo partly specified) shows drug sensitivity score at minimum 6?
Response: f

Query: drug sensitivity score >= 6 for CC(=O)[C@]1(O)Cc2c(O)c3c(c(O)c2[C@@H](O[C@H]2C[C@H](N)[C@H](O)[C@H](C)O2)C1)C(=O)c1ccccc1C3=O ?
Response: t

Query: Would you say CC[C@H](C)C(=O)O[C@H]1C[C@@H](C)C=C2C=C[C@H](C)[C@H](CC[C@@H]3C[C@@H](O)CC(=O)O3)[C@H]21 shows drug sensitivity score at minimum 6?
Response: f

Query: Item COc1ccc(-c2ccc3ncc4c(c3c2)n(-c2ccc(N3CCNCC3)c(C(F)(F)F)c2)c(=O)n4C)cn1 with drug sensitivity score of 6 or above?
Response: t

Query: In plain terms: is recorded drug sensitivity score at least 6 for Cc1c(N)nc([C@H](CC(N)=O)NC[C@H](N)C(N)=O)nc1C(=O)N[C@H](C(=O)N[C@H](C)[C@@H](O)[C@H](C)C(=O)N[C@H](C(=O)NCCc1nc(-c2nc(C(=O)NCCC[S+](C)C)cs2)cs1)[C@@H](C)O)[C@@H](OC1OC(CO)C(O)C(O)C1OC1OC(CO)C(O)C(OC(N)=O)C1O)c1cnc[nH]1 (stereo partly specified) ?
Response: f

Query: Identify whether the reported drug sensitivity score of the following molecule is 6 or greater: CCc1c2c(nc3ccc(O)cc13)-c1cc3c(c(=O)n1C2)COC(=O)[C@]3(O)CC
Response: t

Query: I'd appreciate it if you could say whether CCC(C)(C)C(=O)O[C@H]1C[C@@H](C)C=C2C=C[C@H](C)[C@H](CC[C@@H]3C[C@@H](O)CC(=O)O3)[C@H]21 has drug sensitivity score at least equal to 6.
Response: f

Query: Is drug sensitivity score for CC1(C)CC[C@]2(NC(=O)C(C)(F)F)CC[C@]3(C)[C@H](C(=O)C=C4[C@@]5(C)C=C(C#N)C(=O)C(C)(C)[C@@H]5CC[C@]43C)[C@@H]2C1 at or above 6?
Response: t

Query: Say whether NCCNc1ccc(NCCN)c2c1C(=O)c1ccncc1C2=O shows drug sensitivity score of 6 or more.
Response: f

Query: I'd appreciate it if you could say whether CC(C)C[C@H](NC(=O)[C@@H](COC(C)(C)C)NC(=O)[C@H](Cc1ccc(O)cc1)NC(=O)[C@H](CO)NC(=O)[C@H](Cc1c[nH]c2ccccc12)NC(=O)[C@H](Cc1cnc[nH]1)NC(=O)[C@@H]1CCC(=O)N1)C(=O)N[C@@H](CCCNC(=N)N)C(=O)N1CCC[C@H]1C(=O)NNC(N)=O has drug sensitivity score at least equal to 6.
Response: f

Query: Quick check: does Nc1ccccc1NC(=O)c1ccc(CNC(=O)OCc2cccnc2)cc1 have drug sensitivity score greater than or equal to 6?
Response: t

Query: Is drug sensitivity score at least 6? Consider C[C@@H]1CN(C(=O)c2ccc(NC(=O)c3cc(O[C@H](C)c4c(Cl)ccc(F)c4Cl)c(N)nn3)cc2)C[C@H](C)N1
Response: f

Query: Has CC1(C)CCC(CN2CCN(c3ccc(C(=O)NS(=O)(=O)c4ccc(NCC5CCOCC5)c([N+](=O)[O-])c4)c(Oc4cnc5[nH]ccc5c4)c3)CC2)=C(c2ccc(Cl)cc2)C1 a recorded drug sensitivity score greater than or equal to 6?
Response: f

Query: Confirm if drug sensitivity score reported for the molecule CNc1ncc2cc(-c3cc(NC(=O)NCCC(C)(C)C)c(F)cc3C)c(C)nc2n1 is 6 or above.
Response: f

Query: Hello, I need to know if CNC(=O)c1ccc(C)c(-n2c(C)cc(OCc3ccc(F)cc3F)c(Br)c2=O)c1 has measured drug sensitivity score not below 6. Thanks!
Response: f

Query: Form field: drug sensitivity score at least 6? Entry: C=C1C[C@@H]2CC[C@@]34C[C@H]5O[C@H]6[C@@H](O3)[C@H]3O[C@H](CC[C@@H]3O[C@H]6[C@H]5O4)CC(=O)C[C@@H]3[C@@H](OC)[C@@H](C[C@H](O)CN)O[C@H]3C[C@H]3O[C@@H](CC[C@@H]1O2)C[C@@H](C)C3=C
Response: t

Query: Given the entry O=C(/C=C/c1cccc(S(=O)(=O)Nc2ccccc2)c1)NO , answer whether its drug sensitivity score meets or surpasses 6.
Response: t

Query: // inclusive: drug sensitivity score at least 6? input: N#CC1(c2ccc(NC(=O)c3cccnc3NCc3ccncc3)cc2)CCCC1
Response: f

The measurements presented in this section are drawn from the supplement of paper PMC7224384.
